test: Plasma and tissue distribution in SD rats; type: in vivo; conditions: male, SD, rat, spleen / plasma, po, 10 mg/kg, male SD rat, PO 10 mg/kg, Spleen; Tissue AUC0-last/Plasma AUC0-last; read-out: AUC Ratio
test_readout: Kp
Provide a numeric answer; units are not to be included.

Kp for C[C@@H](c1ccc(Nc2cc(Nc3ncccc3S(C)(=O)=O)ncn2)nc1)N1CC2(COC2)C1 [Compound 1] ?
4.88

---

test: Plasma and tissue distribution in SD rats; assay type: in vivo; conditions: male, small intestine; M SD rat, S. Intestine
test_readout: Cmax (ng/mL)
Please reply with the bare figure in ng/mL and do not write the unit itself.

Cmax for C[C@@H](c1ccc(Nc2cc(Nc3ncc(F)cc3S(C)(=O)=O)ncn2)nc1)N1CC2(COC2)C1 [Compound 2] ?
28900

---

test: Plasma and tissue distribution in SD rats; assay type: in vivo; details: male, Sprague-Dawley (SD), rat, bone marrow, M SD rat, Bone Marrow; read-out: AUClast
test_readout: AUC(0-t) (ng·h/mL)
Please reply with the bare figure in ng·h/mL and do not write the unit itself.

AUC(0-t) for C[C@@H](c1ccc(Nc2cc(Nc3ncc(F)cc3S(C)(=O)=O)ncn2)nc1)N1CC2(COC2)C1 ?
19600

---

Assay: Plasma and tissue distribution in SD rats
Assay type: in vivo
Details: female SD rat, PO 10 mg/kg, Spleen
Protocol: The following Example describes the methods and data used to evaluate the tissue distribution of TYK2 inhibitors following the administration of either compound 1 or compound 2. Thirty (30, 15/sex) SD rats supplied by Beijing Vital River Laboratory Animal Technology Co., Ltd. were used in this study. […] The room (s) was controlled and monitored for relative humidity (targeted mean range 40% to 70%) and temperature (targeted mean range 20° C. to 26° C.) with 15 or above air changes/hour. […]
test_readout: half-life (h)
Please reply with the bare figure in h and do not write the unit itself.

half-life for C[C@@H](c1ccc(Nc2cc(Nc3ncccc3S(C)(=O)=O)ncn2)nc1)N1CC2(COC2)C1 ?
2.62

---

tested on: IL-6 induced pSTAT3; assay: IL-6 induced pSTAT3 assay in TF-1 cells; assay type: cell-based; details: Homo sapiens, read-out: Cellular selectivity (IL-6/pSTAT3)
Below is a list of entries, each paired with its recorded IC50 value.

Here are 5 molecules together with their reported answers.
| molecule | assay_target | reported_measurement |
| --- | --- | --- |
| Cc1nc(Nc2cc(Nc3ncccc3S(C)(=O)=O)ncn2)ccc1[C@H](C)N1CC2(COC2)C1 (stereo in doubt) [Compound 12] | IL-6 induced pSTAT3 | < 4 µM |
| C[C@@H](c1ccc(Nc2cc(Nc3ncccc3S(C)(=O)=O)ncn2)nc1)N1CC2(COC2)C1 [Compound 1] | IL-6 induced pSTAT3 | > 10 µM |
| CS(=O)(=O)c1cccnc1Nc1cc(Nc2ccc3c(n2)CCCC3N2CC3(COC3)C2)ncn1 (stereo in doubt) [Compound 5] | IL-6 induced pSTAT3 | 4 to 10 µM |
| CC(c1ccc(Nc2cc(Nc3ncccc3S(C)(=O)=O)ncn2)nc1C(F)(F)F)N1CC2(COC2)C1 (stereo in doubt) [Compound 11] | IL-6 induced pSTAT3 | < 4 µM |
| C[C@H](c1ccc(Nc2cc(Nc3ncccc3S(C)(=O)=O)ncn2)nc1)N1CC2(COC2)C1 [Compound 17] | IL-6 induced pSTAT3 | > 10 µM |

IC50 for C[C@@H](c1ccc(Nc2cc(Nc3ncc(F)cc3S(C)(=O)=O)ncn2)nc1)N1CC2(COC2)C1 [Compound 2] ?
> 10 µM
